Biological target: T1, transferrin (UniProt P02787 20-698)
T1 construct: transferrin (serotransferrin), the iron transporter of serum; probably the mature plasma protein; also called Tf; WT-Tf
T1 sequence (P02787 20-698): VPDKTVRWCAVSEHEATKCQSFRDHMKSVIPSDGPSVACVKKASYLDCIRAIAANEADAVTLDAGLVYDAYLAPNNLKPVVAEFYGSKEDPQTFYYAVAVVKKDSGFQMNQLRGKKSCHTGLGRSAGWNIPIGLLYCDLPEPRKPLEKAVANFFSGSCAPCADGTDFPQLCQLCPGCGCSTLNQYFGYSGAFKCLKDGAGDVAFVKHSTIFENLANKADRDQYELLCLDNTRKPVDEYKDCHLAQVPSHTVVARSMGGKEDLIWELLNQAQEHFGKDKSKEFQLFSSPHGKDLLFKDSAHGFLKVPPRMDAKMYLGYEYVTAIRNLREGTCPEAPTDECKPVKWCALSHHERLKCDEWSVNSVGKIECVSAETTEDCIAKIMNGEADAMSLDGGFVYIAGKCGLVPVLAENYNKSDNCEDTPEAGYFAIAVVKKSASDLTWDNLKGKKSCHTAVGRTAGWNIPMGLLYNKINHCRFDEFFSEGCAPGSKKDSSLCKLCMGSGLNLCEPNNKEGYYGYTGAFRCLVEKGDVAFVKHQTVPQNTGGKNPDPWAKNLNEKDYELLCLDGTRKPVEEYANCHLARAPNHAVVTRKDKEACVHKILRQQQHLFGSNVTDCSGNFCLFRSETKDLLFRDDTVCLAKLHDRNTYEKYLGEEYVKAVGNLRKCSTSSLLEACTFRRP
Assay: not stated; direct binding of TC6 (Fig. S9C to E); method not given
measurement_name: Kd (nM)
Give the value, in units of nM, as a plain number.

Value of measured Kd for the entry TTPEPC (designed peptide TC6; also called interference peptide TC6) [peptide TC6] : 13
